System: OVCAR-5 ovarian
Test: NCI-60 one-dose screen, 48 h
Conditions: 10 µM unless noted
About 83,000 compounds went through this panel and 20% of them were active in at least one assay; those are over-represented in the sample as a whole. The source made the active and inactive calls. The calls were made as follows: active = growth percent below 10; inactive = the rest.
Permitted responses: 1.0 for active, 0.0 for inactive

1) Cc1ccc(S(=O)(=O)NCC[C@@H]2C[C@H]2c2cc3ccccc3s2)cc1    0.0
2) COc1cc(Cn2ncc3ccc(NC(=O)c4cc5ccccc5oc4=N)cc32)cc(OC)c1OC    0.0
3) CCC1(C2CCCC2)NC(=O)NC1=O (stereo not given)    0.0
4) COc1cc2nc(Cl)nc(Nc3ccc(S(=O)(=O)Nc4nccs4)cc3)c2cc1OC    0.0
5) Cc1occc1-c1n[nH]c(=S)n1N1C(=O)CSC1=S    0.0

Recorded call for "O=c1[nH]ccc2nc(N3CCC(O)CC3)nc(Nc3ccc(N4CCOCC4)cc3)c12" ?
0.0

Recorded call for "CCN(CC)c1ccc2nc3c4ccccc4c(=NC(=O)c4ccccc4-c4c5ccc(N(CC)CC)cc5[o+]c5cc(N(CC)CC)ccc45)cc-3oc2c1" ?
0.0

Recorded call for "c1c[nH]c(CNC2CCCCC2)c1" ?
0.0

Recorded call for "O=C(CSc1nnc(-c2ccc(NC(=O)c3cccnc3)cc2)o1)N[C@@H](Cc1ccc(O)cc1)C(=O)O" ?
0.0

Recorded call for "Cc1cc(/C=C\c2ccc3ccccc3[n+]2C)c(O)c2ncccc12" ?
0.0
